Assay: Selectivity index, ratio of CC50 for cytotoxicity against human A549 cells to IC50 for antiviral activity against Human adenovirus 5 infected in 293beta5 cells assessed as inhibition of plaque formation after 7 days
Assay type: toxicity, cell-based
Conditions: read-out: Ratio CC50/IC50
selectivity ratio at 168 h less than 30 is fulfilled; selectivity ratio at 168 h greater than or equal to 30 is not fulfilled.

Example results:
Smiles record | Discrete label
O=C(CNC(=O)c1cc(Cl)ccc1O)Nc1ccc([N+](=O)[O-])cc1Cl | not fulfilled
CS(=O)(=O)Nc1ccc(Cl)cc1C(=O)NCC(=O)Nc1ccc([N+](=O)[O-])cc1Cl | fulfilled
CC(C)(C)OC(=O)CC[C@H](NC(=O)c1cc(Cl)ccc1O)C(=O)Nc1ccc([N+](=O)[O-])cc1Cl | not fulfilled
O=C(NCc1ccc(F)cc1Cl)c1cc(Cl)ccc1O | fulfilled
Cc1ccc(O)c(C(=O)Nc2cc(F)cc(C(F)(F)F)c2)c1 | fulfilled
O=C(Nc1cc(F)cc(C(F)(F)F)c1)c1cccc(Cl)c1 | fulfilled
O=C(NCCc1ccc(F)cc1)c1cc(Cl)ccc1O | not fulfilled
CC(C)[C@H](NC(=O)c1cc(Cl)ccc1O)C(=O)Nc1ccc(F)c(F)c1 | not fulfilled

Please find the next molecule below.
Inquiry: Answer whether the molecule `O=C(N[C@@H](Cc1ccccc1)C(=O)Nc1cc(C(F)(F)F)cc(C(F)(F)F)c1)c1cc(Cl)ccc1O` has selectivity ratio at 168 h strictly less than 30
Reply text: not fulfilled

Source listed as ChEMBL document CHEMBL4402567.
